# measurement.notes: NCI Yeast Anticancer Drug Screen. Data for the sgs1 mgt1 strain (AID 161)
# settings: S. cerevisiae sgs1 mgt1 strain, at 50.0 µM (retest, dose inferred, filed as 5.0)
This is part of a sample that, as a whole, favours compounds with a hit. Of some 79,000 tested, about 15% had one in any assay. Active and inactive are the calls of the source. Rule as the data show it: active = growth inhibition above about 70%; inactive = the rest.
Labels: active, inactive

compound=C=CCN(CC=C)C(CC(=O)C(C)(C)C)=NCC assigned_class=inactive
compound=Clc1cc(Cl)c(Cl)nn1 assigned_class=inactive
compound=O=C(CON1C(=O)c2ccccc2C1=O)c1ccccc1 assigned_class=inactive
compound="O=[N+]([O-])c1ccc(Cl)c(C2CC(c3cccc4ccccc34)=Nc3ccccc3S2)c1 (stereo not given)" assigned_class=inactive
compound="CN1C(c2ccccc2)CC(=NOCc2ccccc2)CC1c1ccccc1 (stereo not given)" assigned_class=active
compound=CCCCCCCCCCCCSC(=NC)NC assigned_class=active
compound=CCCCCCCCCCCCCCCCCC(=O)NCCO assigned_class=inactive
compound=O=S(=O)(c1ccc(F)cc1)c1ccc(F)cc1 assigned_class=inactive
compound=C=C(C)C(=O)Oc1ccc(N=Nc2ccccc2)ccc1=O assigned_class=active
compound=CC(C)Oc1ccc(Nc2ccccc2)cc1 assigned_class=inactive
compound=O=C(O)CSCc1ccc(Cl)cc1 assigned_class=inactive
compound=[N-]=[N+]=NC(=O)Nc1cccc(C(F)(F)F)c1 assigned_class=active
compound=O=C(Nc1ccc(C(=O)O)c(O)c1)c1ccccc1 assigned_class=inactive
compound="CCCCCCCCCCCCCCCCOP(=O)(O)OP(=O)(O)OCC1OC(n2ccc(N)nc2=O)C(O)C1O (stereo not given)" assigned_class=active
compound=CCCCCC[C@H](C/C=C\CCCCCCCC(=O)OC)OC(C)=O assigned_class=inactive
compound=COc1cccc(NC(=S)N2CCCCC2)c1 assigned_class=inactive
compound="CC1(C)N(OC2CCCCO2)C(c2ccccc2)C(c2ccccc2)=[N+]1[O-] (stereo not given)" assigned_class=inactive
compound=Nc1ccc2c3c(cccc13)C(=O)N(CCCBr)C2=O assigned_class=active
compound=COc1ccc(Cc2ccc(O)cc2)cc1 assigned_class=inactive
compound=CCOc1ccc(N/N=C(\CCC(=O)O)C(=O)O)cc1 assigned_class=active
compound=NC(=O)N/N=C/c1ccc([N+](=O)[O-])o1 assigned_class=inactive
compound=COC(=O)C#CC(=O)OC assigned_class=active
compound=Cc1cc2c(c(Br)c1O)Oc1c(cc(C)c(O)c1Br)C21OC(=O)c2ccccc21 assigned_class=active
compound="C=C1C(=O)OC2C[C@@]3(C)CCC[C@H](C)C3=CC12 (stereo not given in full) (tested in a mixture with another compound)" assigned_class=active
compound=CCCCN(CCCC)C(Cl)=Nc1ccccc1 assigned_class=inactive
